Values compiled from ChEMBL document CHEMBL5352462.

Measured logP by item
Experiment: Lipophilicity, logP of compound
Format: physicochemical
Conditions: octanol/water
Answer with the value's number alone.

COc1ccc(/C=C/c2cc(OC)c(OC)c(OC)c2)c(OC)c1; 3.59

Task item: GET /values?readout=logP&item= Oc1cc(O)cc(-c2cc3ccc(O)cc3o2)c1 [MORACIN M]
Reply: 2.21

Task item: Check `COc1cc(-c2cc3ccc(O)cc3o2)cc(OC)c1OC` too.
Reply: 2.61

* * *

Tested on: HCT cell line
Test: Cytotoxicity against HCT cell expressing KRAS assessed as growth inhibition by measuring synthetic lethality at 2 uM relative to control
Format: functional
Details: Homo sapiens
observable: inhibition at 2 µM (%)
Value expressed in %; do not type the unit.

Task item: GET /values?readout=inhibition at 2 µM&item= `COc1ccc(OC)c(-c2cc3ccc(OCc4ccccc4)cc3[nH]2)c1`
Reply: 6.9

Task item: Check `COc1cc(-c2cc3ccc(O)cc3o2)cc(OC)c1OC` too.
Reply: 0.5

Task item: Check `COc1ccc(OC)c(-c2cc3ccc(O)cc3[nH]2)c1` too.
Reply: 0

Task item: Check `Oc1ccc2cc(-c3cc(O)c(O)c(O)c3)oc2c1` too.
Reply: 0.5
